Entry source: a melting point compilation (Tetko et al.; mined from patent text by program, amines drawn as free bases though some values may be those of a salt)

I'd appreciate it if you could supply melting point values for the items below.

See these solved cases before continuing.
{"COMPOUND": "CCc1[nH]n(C2CCCC2)c2nc(-c3ccnc4ccccc34)nc(=O)c1-2", "melting point": "205 to 206 °C"}
{"COMPOUND": "CCCCCCOc1ccc(-c2ccccc2)cc1", "melting point": "61 to 62 °C"}

Hi! Can you tell me melting point for each of these compounds?
1. CC1Cc2cc(NC(=O)OCc3ccccc3)ccc2N1C(=O)OCc1ccccc1 (stereo not given)
2. COc1cc(-c2c(Cl)c(CN3C(=O)CCC3=O)nc3sc4c(c23)CCN(C(C)=O)C4)ccc1O
3. Cc1cc(Cl)cc2c(=O)oc(-c3cc(Br)nn3-c3ncccc3Cl)nc12

stdout:
1. 107 to 111 °C
2. 273 to 275 °C
3. 203 to 205 °C

---

READOUT LABEL: melting point

See these solved cases before continuing.
{"MOLECULE": "Cc1cccc(NC(=O)NCC(=O)N(CC(=O)Oc2ccccc2)c2ccccc2)c1", "RECORDED MEASUREMENT": "206 °C"}
{"MOLECULE": "CCCc1c(OCCCCCCc2ccc(C(C)(C)C)c(O)c2O)ccc(C(=O)O)c1O", "RECORDED MEASUREMENT": "85 to 87 °C"}
{"MOLECULE": "CCCc1c(OCC(=O)OCC)ccc(C(C)=O)c1O", "RECORDED MEASUREMENT": "61 to 64 °C"}

Hi! Can you tell me melting point for each of these molecules?
1. CCOC(=O)C(Cc1ccc(OCCN2CCC(C)(C)c3cc(C(=O)c4ccccc4)ccc32)cc1)OCC(F)(F)F (stereo not given)
2. CN(C(=O)CBr)n1cccc1C(=O)c1ccccc1
3. CCCn1c(=O)c2c(NC)n(C(C)=O)nc2n(Cc2cccc(Cl)c2)c1=O
4. CCCCc1ccc(-c2csc(-c3ccc(C(=O)O)cc3)n2)cc1
5. CC(C)(C)C(O)(C=Cc1ccc(Cl)cc1)Cn1ccnc1 (stereo not given)
6. CCOC(=O)CCCn1c(Nc2cnc(N3CCCC3)cc2C)nc2c(Cl)ccc(C(CC)CC)c21
7. Cc1cc(-n2cncn2)c2cccc(OCc3c(Cl)ccc(S(=O)(=O)N4CCC[C@H]4C(=O)NCCCN(C)C)c3Cl)c2n1

stdout:
["56 to 58 °C", "76 to 78 °C", "169 to 171 °C", "263 to 265 °C", "139 to 141 °C", "195 to 196 °C", "105 °C"]

Hi! Can you tell me melting point for each of these molecules?
1. COc1cc(OC)c(C(=O)C=Cc2ccc3c(c2)OCO3)c(OP(=O)(O)O)c1
2. CCCCCOc1ccc(CCOc2ccc(/C=C(\OCC)C(=O)O)cc2OCCCC)cc1F
3. COc1cc2c3c(c1)nc(SCc1ccncc1)n3CCC2

stdout:
["79 to 80 °C", "102 °C", "99 to 101 °C"]

---

READOUT LABEL: melting point

See these solved cases before continuing.
{"STRUCTURE": "CC#CCOc1ccc(S(=O)(=O)N(C)CCC(=O)O)cc1", "melting point": "90 to 110 °C"}
{"STRUCTURE": "NCCC(=O)N(c1ccccc1)c1ccccc1", "melting point": "50 °C"}

Hi! Can you tell me melting point for each of these molecules?
1. CCOC(=O)Cc1c(C)n(Cc2ccc3ccccc3c2)c2ccc(OCc3csc(-c4ccccc4)n3)cc12
2. CCCCc1c(C(=O)O)[nH]c2c(Br)cccc2c1=O
3. CC1(C)CC(N(CCCCCCN(c2nc(Cl)nc(Cl)n2)C2CC(C)(C)NC(C)(C)C2)c2nc(Cl)nc(Cl)n2)CC(C)(C)N1
4. C=CCCN(CCC=C)Cc1noc(-c2ncn3c2[C@@H]2CCN2C(=O)c2ccccc2-3)n1
5. C=CCS(=O)(=O)c1ncc(Cl)cn1

stdout:
118 to 119 °C
220 °C
161 to 163 °C
80 to 87 °C
84 °C

Hi! Can you tell me melting point for each of these molecules?
1. Nc1c(-c2ccc(C(F)(F)F)cc2F)nnn1-c1ccc(S(N)(=O)=O)cc1
2. CC(=O)ON=C1CCCN(C(=O)c2ccc(NC(=O)c3ccccc3Cl)cc2)c2ccccc21

stdout:
1: 184 to 185 °C; 2: 142 to 144 °C

---

I'd appreciate it if you could supply melting point values for the items below.

See these solved cases before continuing.
{"MOLECULE": "Cn1nc(-n2ncc(C(N)=S)c2Br)c(Cl)c1OC(F)F", "READOUT LABEL": "melting point", "RECORDED MEASUREMENT": "175 °C"}
{"MOLECULE": "N#CC1(Sc2ccccc2)Cc2cc3c(cc21)N(C(=O)Nc1cccnc1)CC3 (stereo unspecified)", "READOUT LABEL": "melting point", "RECORDED MEASUREMENT": "110 to 113 °C"}
{"MOLECULE": "O=C(c1ccccc1)c1cc([N+](=O)[O-])ccc1-n1nc(CCl)cc1CCl", "READOUT LABEL": "melting point", "RECORDED MEASUREMENT": "152 to 155 °C"}
{"MOLECULE": "FC(F)(F)c1ccc(N2CCNCC2)nc1", "READOUT LABEL": "melting point", "RECORDED MEASUREMENT": "45 to 47 °C"}

Hi! Can you tell me melting point for each of these molecules?
1. Cn1nc(-c2ccc(Cl)cc2)c2c1-c1ccccc1C2
2. CC(C)Nc1cccnc1N1CCN(C(=O)c2ccc(C(=O)N(C(C)C)C(C)C)cc2)CC1
3. O=C(O)[C@@H]1CCCN1C(=O)CCBr
4. CCn1cc(C(=O)NN)c(=O)c2ccc(-c3ccccc3)cc21
5. FC(F)(F)c1cccc2nc3c4ccccc4c4ccccc4c3nc12

stdout:
1. 176 °C
2. 152 to 153 °C
3. 83 to 85 °C
4. 243 to 244 °C
5. 195 to 196 °C

Hi! Can you tell me melting point for each of these molecules?
1. COC(=O)c1sc(OC)cc1OP(=O)(OC)OC
2. C=CC(=O)NC1Cc2ccc(-c3ccc(=O)[nH]n3)cc2C1 (stereo unspecified)

stdout:
1. 35 °C
2. 235 to 237 °C

Hi! Can you tell me melting point for each of these molecules?
1. COC(=O)C(C)(C)c1ccc(OCCN)cc1
2. CCOC(=O)C(C)Oc1ccc2ccc(Oc3cc(-n4c(=O)cc(C(F)(F)F)n(C)c4=O)c(F)cc3C#N)cc2c1 (stereo unspecified)
3. CCn1cc(C2(c3cccc(-c4cccnc4F)c3)N=C(N)N(C)C2=O)cc1COC (stereo unspecified)
4. COc1ccc(C2CCc3cc(OC)ccc3C2CO)cc1 (stereo unspecified)
5. Cc1cc(C2=NOC(c3cc(Cl)cc(Cl)c3)(C(F)(F)F)C2)ccc1C(=O)NC1CSSC1 (stereo unspecified)
6. COc1ccc(CN([C@@H](CO)c2ccccc2)S(=O)(=O)c2ccc(Cl)cc2)cc1C(=O)O

stdout:
108 to 112 °C
133 °C
154 to 157 °C
84 °C
73 °C
79 to 80 °C

Hi! Can you tell me melting point for each of these molecules?
1. COc1ccc(/C=C/C(=O)Nc2ccccc2C(=O)OCC(=O)OC(C)(C)C)cc1OC
2. N=C(NOC(=O)c1ccccc1)c1ccc(NC(=O)CCCC(=O)Nc2ccc(C(=N)NOC(=O)c3ccccc3)cc2)cc1

stdout:
["116 to 118 °C", "253 to 255 °C"]

Hi! Can you tell me melting point for each of these molecules?
1. COC(=O)c1cc(O)cc(C(=O)CS(C)=O)c1 (stereo unspecified)
2. CC1=Cc2cc(Br)cc(S(N)(=O)=O)c2OS1(=O)=O

stdout:
144 to 150 °C
243 to 245 °C

---

I'd appreciate it if you could supply melting point values for the items below.

{"COMPOUND": "COc1ccc(S(=O)(=O)Nc2ccc(Cl)c(OCCN(C)C)c2)cc1OC", "melting point": "103 to 106 °C"}
{"COMPOUND": "CCOC(=O)c1ccc(-c2ccc(-c3ccccc3)c(-c3ccc4c(c3)C(C)(C)CCC4(C)C)c2)nc1", "melting point": "105 to 107 °C"}
{"COMPOUND": "Nc1nccc(C=Cc2ccc([N+](=O)[O-])cc2)n1", "melting point": "214 to 216 °C"}
{"COMPOUND": "COc1ccc2c(c1)CCC1CCNC(=O)C(CCN3CCCCC3)=C21 (stereo unspecified)", "melting point": "125 to 128 °C"}
{"COMPOUND": "OC(c1ccc(Cl)cc1)c1ccc(-n2ccnc2)nc1 (stereo unspecified)", "melting point": "147 to 149 °C"}
{"COMPOUND": "O=C(O)CCN=c1sc2ccccc2s1", "melting point": "203 to 204 °C"}
{"COMPOUND": "COc1cccc(Cc2cc3cccc(-c4cccc(C(=O)NCCN5CCCC5)c4)c3o2)c1", "melting point": "101 to 102 °C"}
{"COMPOUND": "COc1ccn2nc(-c3ccccc3)c(-c3ccc(=O)n(C(C)C)n3)c2c1", "melting point": "180 to 182 °C"}

Hi! Can you tell me melting point for each of these compounds?
1. CCCCC(=O)Nc1ccc(Cl)cc1C(=O)OC
2. COC(=O)Nc1nc(-c2ccccc2)c(-c2nc3ccccc3c(=O)n2-c2ccccc2)s1
3. CCOC(=O)C(=CNc1ccccc1OC)C(C)=O
4. Cc1c(C(=O)NCc2ccc3c(Br)c(OCC#N)ccc3c2)oc2ccccc12
5. COc1ccc(C)cc1NC(=O)Nc1ccc(N2CCN(c3ncccn3)CC2)cc1
6. Nc1ncnc2c1c(-c1ccc(OCc3ccccc3)cc1)cn2-c1cccc(OCCCl)c1
7. COC(=O)c1ccc(-c2n[nH]c3c2CCc2nc(C(C)C)c(C(C)C)nc2-3)cc1
8. Cc1ccc(C2c3c(C)c(N4CCN(c5ccccc5[N+](=O)[O-])CC4)c(C)c(C)c3OC2(C)C)cc1 (stereo unspecified)

stdout:
["48 to 49 °C", "> 275 °C", "103 to 105 °C", "194 to 197 °C", "220 to 221 °C", "146 to 148 °C", "204 to 206 °C", "178 to 180 °C"]

Hi! Can you tell me melting point for each of these compounds?
1. COc1cc2ccc(C)cc2c(C)c1OC
2. OCC1CCn2c(cc3ccccc32)C1 (stereo unspecified)

stdout:
1. 68 to 69 °C
2. 110 to 111 °C

Hi! Can you tell me melting point for each of these compounds?
1. CCCCNC(=O)NS(=O)(=O)c1c(C)nn(C)c1OC
2. CC(=O)n1[nH]c(=O)n(-c2ccc(Cl)cc2)c1=O
3. O=c1c(Br)cc(-c2ccncn2)cn1Cc1ccccc1

stdout:
1. 135 to 142 °C
2. 201 to 203 °C
3. 189 to 192 °C
